# test.summary: protease stability score; higher = more stable; yeast display proteolysis, trypsin and chymotrypsin;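 further: log10 excess protease needed over predicted unfolded state with 0 meaning unfolded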
quantity.measured: protease stability score
Please reply with the number alone, leaving off any unit.

Q: Bench note: what protease stability score did `DERNREIVEEYFKAIKQGDEDRYKQMVDPNVHVEVGDRNYHGREHQARWMHRLRKHMRLVFNIRSIDVSGDKVKVKLDYEEEHNGEPRTNKMTVEFKFHNGKILKIKIQTRQ` show?
A: 2.08

Q: What about `DERQRSRAEEFMKNYQTGNEQNLDKLFDKNAKVHVGDKVVHGREQIREQNRREKEHLRFKIRHMDVEVRNGHVSVQVRMEREHNGHPQTVSVQFRNEQHNGQIKRFEREEQQ` ?
A: 0.258

Q: Next entry: `DPKRTVKVAEEAAKILYNGDSDKAKKVFKPDLRVKIADRETQGVEQIVKELEKFQKIGVERETKEKRTEGDKVQFHTVYRNGSDQAKMTVEYQAKDGKVDRIQVDYDEKAKKIQEDG`
A: -0.407

Q: Next entry: `DHEDRAKDMLRRYEEALKSGNPDEARKLADEDVNFNIGDKRYRGRDDLATLVKQIRDSADHISITLETFTVQGNTITMDVSVVVDVNGKHISRRYNIIAQVDNGTLKLKSVQEH`
A: -0.015

Q: Can you handle `ENHVMNNAEKYLRLLEKGDEEELVKMADPNAKFRIGDKHVHGMESFADDLFRKQKEIRMEINIKHYEVQGDHVTIKAEQEKQHDGRPRRDTNKIIMQVHNGKIKQVTFTSDG` next?
A: -0.222

Q: What about this sequence? `DEKKVEKVVREALKAMINGDKDKVRKLLKPDVQFHAGDVEMHGVDQVVKYYEKIKRQGVEMHIKEVKVTGNEAEVKYDLRADGTEATVKAKVVVENEKVDHVTAELTKTYDDLVKKS`
A: -0.107
